Test: CD interaction of perfume components
Assay type: physicochemical
Details: weak = cyclodextrin-compatible; significant or strong = cyclodextrin-incompatible
Source text: The following table illustrates the molecular weight property of some of the cyclodextrin-incompatible enduring (hydrophobic) perfume materials (i.e. having significant or strong CD interaction) versus cyclodextrin-compatible perfume materials (i.e. having weak CD interaction).
measured parameter: CD interaction

Recorded results for 6 compounds are shown here.
| compound | CD interaction |
| --- | --- |
| CC(=O)OC1CCC(C(C)(C)C)CC1 (stereo not shown) [Vertenex, para-tert-butylcyclohexyl acetate] | strong |
| CC(C=O)Cc1ccc(C(C)(C)C)cc1 (stereo not shown) [Lilial, p-t-bucinal] | strong |
| CC1COCc2cc3c(cc21)C(C)(C)C(C)C3(C)C (stereo not shown) [Galaxolide] | weak |
| CCC(C)(O)CCCC(C)C (stereo not shown) [Tetrahydrolinalol] | significant |
| CC(=O)/C=C/C1C(C)=CCCC1(C)C (stereo not shown) [a-ionone] | strong |
| CCOC(=O)c1ccccc1C(=O)OCC [Diethyl Phthalate] | weak |

# input # query: CD interaction of entry CC(=O)C1(C)CC2=C(CCCC2(C)C)CC1C (stereo not shown) [Iso-E Super]
# output weak

# input # query: CD interaction of entry CC(=O)OC(C)(C)C1CC=C(C)CC1 (stereo not shown) [Terpinyl Acetate]
# output significant

# input # query: CD interaction of entry CCC(=O)OC1CC2CC1C1CC=CC21 (stereo not shown) [Frutene]
# output strong

# input # query: CD interaction of entry CCCCCCCCCCCCCC(=O)OC(C)C [Iso-propyl Myristate]
# output weak

###

Test: CD interaction of perfume components
Format: physicochemical
Conditions: weak = cyclodextrin-compatible; significant or strong = cyclodextrin-incompatible
measured parameter: CD interaction

| molecule | measured parameter | val |
| --- | --- | --- |
| O=C(Cc1ccccc1)OCCc1ccccc1 [Phenyl-Ethyl-Phenyl Acetate] | CD interaction | weak |
| CC(=O)C(C)=C(C)C(C)C(C)(C)C (centres unmarked) | CD interaction | strong |
| CC(C)(O)CCCC1=CCC(C=O)CC1 (centres unmarked) | CD interaction | weak |
| CCCCCCOC(=O)c1ccccc1O [Hexyl Salicylate] | CD interaction | weak |

# input # query: CD interaction of entry CC(C=O)Cc1ccc(C(C)C)cc1 (centres unmarked)
# output strong

# input # query: CD interaction of entry CCCCCC1C(=O)CCC1CC(=O)OC (centres unmarked) [Methyl Dihydro Jasmonate]
# output weak

# input # query: CD interaction of entry `CCCCCCC(C=O)=Cc1ccccc1`
# output weak

# input # query: CD interaction of entry CC(=O)OC1CC2CC1C1CC=CC21 (centres unmarked) [Flor Acetate]
# output strong
